- Tested on: UACC-257 melanoma
- protocol.details: NCI-60 one-dose screen, 48 h (100 = growth as untreated, 0 = no growth, -100 = all killed)
- test.conditions: 10 µM unless noted
About 83,000 compounds went through this panel and 20% of them were active in at least one assay; those are over-represented in the sample as a whole.
Tag: Y if measured growth is not below 60%, N if it is.

compound: O=C(CN1CCN(c2cc3c(cc2F)c(=O)c(C(=O)O)cn3C2CC2)CC1)Nc1nc(-c2ccc(Cl)cc2)cs1
qualitative.label: N
--
compound: COc1cc(OC)c(/C=C/S(=O)(=O)Cc2cnc(OC)c(N)c2)c(OC)c1
qualitative.label: Y
--
compound: COc1ccc(-c2c3c(nc4n[nH]c(-c5ccc(Cl)cc5)c24)-c2ccccc2C(=O)C3=O)cc1
qualitative.label: N
--
compound: CCOC(=O)c1cnc2ccc(OC)cc2c1Nc1cccc(S(=O)(=O)NC)c1
qualitative.label: Y
--
compound: O=C(NC(Cc1ccccc1)C(=O)CCl)OCc1ccccc1 (stereo not given)
qualitative.label: Y
--
compound: O=C1C=CC(=O)c2c1nc1n2CCCC1
qualitative.label: Y
--
compound: CCN(CC)c1ccc(CNc2cc(C)nc3ccc(OC)cc23)cc1
qualitative.label: N
--
compound: O=[N+]([O-])c1cccc(C2CC(c3ccccc3)=Nc3ccccc3S2)c1 (stereo not given)
qualitative.label: Y
